Measured IC50 values are reported for all entries that follow.
Molecular target: DCN1-UBC12 interaction (Homo sapiens (Human))
Sequence (Q96GG9 60-248 limits assumed): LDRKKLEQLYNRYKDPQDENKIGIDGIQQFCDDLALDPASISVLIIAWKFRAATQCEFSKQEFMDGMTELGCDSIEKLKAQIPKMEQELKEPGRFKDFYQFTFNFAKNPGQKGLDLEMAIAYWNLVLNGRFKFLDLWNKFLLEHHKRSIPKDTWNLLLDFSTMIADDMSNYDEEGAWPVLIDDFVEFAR
Experiment: biochemical
Format: binding
Details: read-out: TR-FRET IC50

compound	target_or_system	IC50
O=C(Nc1ccc2c(c1)OCO2)NC1CCN(Cc2ccccc2)CC1	DCN1-UBC12 interaction (Homo sapiens (Human))	> 103 µM
CN(C)c1ccc(CN2CCC(N(Cc3ccccc3)C(=O)Nc3cc(F)cc(C(F)(F)F)c3)CC2)c2ccccc12	DCN1-UBC12 interaction (Homo sapiens (Human))	> 20.2 µM
COC(=O)[C@@H]1C[C@@H](NC(=O)Nc2ccccc2)CN1Cc1ccccc1C(F)(F)F	DCN1-UBC12 interaction (Homo sapiens (Human))	> 68 µM
CC(C1CCCC1)N1CCC(N(Cc2ccccc2)C(=O)Nc2cc(F)cc(C(F)(F)F)c2)CC1 (stereo not shown)	DCN1-UBC12 interaction (Homo sapiens (Human))	> 7.78 µM

From: patent US11116757B2
